Target: T1, 4H3628-bA
T1 chain: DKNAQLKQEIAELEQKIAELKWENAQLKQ
Experiment: two-hybrid library CCNG1;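 further: natural log of median RNA to DNA barcode read ratio; higher means stronger binding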
Measurement Type: interaction score
Answers are plain numbers.

Ask: Please give the measured interaction score for this binder: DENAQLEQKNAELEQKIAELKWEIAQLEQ [4H1449-bA]
Result: -0.201

Hello, I would appreciate it if you could give interaction score for each entry below.
1. DKNAQLEQEIAELKQENAELKWEIAQLKQ [4H3162-bA]
2. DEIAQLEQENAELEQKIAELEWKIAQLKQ [4H166-bA]
3. DKNAQLEQKNAELEQKIAELKWEIAQLEQ [4H3497-bA]

Result:
1. -0.274
2. -0.111
3. -0.547
